All figures here come from patent US20260285897A1.

- test_summary: Aqueous stability assay in PBS (DPBS), HPLC
- Format: physicochemical
- protocol_conditions: 1 mg/mL, room temperature, parent remaining at 2 hr, read-out: PBS (% REM at 2 hr)
Labelling field: enter true if recorded remaining at 2 h is less than 50%. Enter false if it equals or exceeds that cut-off.

molecule	class_assignment
C/C(=N\OC(=O)N(C)C[C@@H]1CCCN1)[C@H]1CC[C@H]2[C@@H]3CCC4C[C@](C)(O)CC[C@]4(C)[C@H]3CC[C@]12C.Cl (some centres unmarked) [GP-GAN- 003 (20b), hydrochloride]	true
CNCCN(C(=O)O/N=C(\C)[C@H]1CC[C@H]2[C@@H]3CCC4C[C@](C)(O)CC[C@]4(C)[C@H]3CC[C@]12C)C(C)C.Cl (some centres unmarked) [GP-GAN- 004 (20d), hydrochloride]	false
CNCCN(C)C(=O)O/N=C(\C)[C@H]1CC[C@H]2[C@@H]3CCC4C[C@](C)(O)CC[C@]4(C)[C@H]3CC[C@]12C.Cl (some centres unmarked) [GP-GAN- 002 (20a), hydrochloride]	false
CNCCN(C(=O)O/N=C(\C)[C@H]1CC[C@H]2[C@@H]3CCC4C[C@](C)(O)CC[C@]4(C)[C@H]3CC[C@]12C)C1CCC1.Cl (some centres unmarked) [GP-GAN- 005 (20c), hydrochloride]	true

Q: Is it true that remaining at 2 h reported for `C/C(=N\O)[C@@]1(F)CC[C@H]2[C@@H]3CC[C@H]4C[C@](C)(O)CC[C@]4(C)[C@H]3CC[C@@]21C` is less than 50%?
Result: false

* * *

- test_summary: Microsomal stability assay
- Assay type: in vitro ADME
- protocol_conditions: Human Liver Microsomes, 37° C., unit in cell hr (head: min), read-out: HLM t1/2
parameter_measured: half-life at 3 µM

Q: Query: half-life at 3 µM; subject: `C/C(=N\O)[C@H]1CC[C@H]2[C@@H]3CC[C@H]4C[C@](C)(O)CC[C@]4(C)[C@H]3CC[C@]12C`
Result: > 2 h
